System: A549/ATCC NSCLC
test: NCI-60 one-dose screen, 48 h (100 = growth as untreated, 0 = no growth, -100 = all killed)
details: 10 µM unless noted
The panel holds about 83,000 compounds, 20% with a hit somewhere; the sample as a whole holds those more often.
# yes (1) = growth below 80% (exclusive); no (0) = growth at/above 80%

Task item: Determine if Cc1ccc(S(=O)(=O)Nc2c(Br)cc(Br)cc2C(N)=O)cc1 shows growth strictly lower than 80%.
Reply: no (0)

Task item: Determine if CC(C)(C)n1cc(-c2ccnc(NCCCNS(=O)(=O)c3ccc(Cl)cc3)c2)c(-c2cccc(O)c2)n1 shows growth strictly lower than 80%.
Reply: yes (1)

Task item: Determine if CN(CCCCN(C[C@H]1Cc2ncccc2CN1)[C@H]1CCCc2cccnc21)C1CCC(F)(F)CC1 shows growth strictly lower than 80%.
Reply: no (0)

Task item: Determine if COc1cc(Nc2nc(N[C@H]3CCCC[C@@H]3N)nc3cc[nH]c(=O)c23)cc(OC)c1 shows growth strictly lower than 80%.
Reply: yes (1)

Task item: Determine if O=S1(=O)CCC(N(/N=C/c2ccco2)c2ccccc2)C1 (stereo not given) shows growth strictly lower than 80%.
Reply: no (0)

The reported numbers originate from PubChem BioAssay (NCI).
